Target: T1, full-length human Nectin4 with C-terminal flag and Myc tags on CHO cells (human, UniProt Q96NY8 32-510)
T1 construct: whole, on cells; also called Nectin4/CHO; CHO/Nectin4; not shown: C-terminal flag and Myc tags of pCMV6-Entry vector
T1 sequence (looked up): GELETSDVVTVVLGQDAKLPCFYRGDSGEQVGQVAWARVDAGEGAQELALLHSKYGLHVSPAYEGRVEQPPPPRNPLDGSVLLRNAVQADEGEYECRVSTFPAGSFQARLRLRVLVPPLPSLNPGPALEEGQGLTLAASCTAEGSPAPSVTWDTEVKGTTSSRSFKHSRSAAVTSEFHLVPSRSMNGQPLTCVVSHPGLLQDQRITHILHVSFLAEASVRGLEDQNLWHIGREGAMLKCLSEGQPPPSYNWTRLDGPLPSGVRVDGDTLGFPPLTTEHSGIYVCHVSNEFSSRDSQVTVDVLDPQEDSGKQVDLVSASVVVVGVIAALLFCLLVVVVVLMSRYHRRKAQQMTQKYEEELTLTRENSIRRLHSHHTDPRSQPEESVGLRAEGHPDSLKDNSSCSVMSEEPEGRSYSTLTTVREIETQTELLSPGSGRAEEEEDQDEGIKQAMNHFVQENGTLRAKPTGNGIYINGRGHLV
Assay: flow cytometry, scFv on Nectin4/CHO cells
Method: To determine whether anti-Nectin4 scFvs bind to Nectin4 expressing cells, 200 nM of purified anti-Nectin4 scFv antibodies were diluted in full medium and incubated with Nectin4/CHO and CHO cells in 96 wells plate on ice for 1 hour. […] Samples were detected with premixed anti-His Biotin Streptavidin Alexa fluor 647 by adding 100 uL of diluted secondary antibody and incubated at 4° C. for 30 minutes in the dark. […] Reconstituted samples in 200 uL of 1×PBS and read on Attune NxT cytometer. […]
// values below are reported EC50
QUANTITY_MEASURED: EC50 (pM)

# BINDER, QUANTITY_MEASURED, MEASUREMENT
rows = [
    ("2020EP034-B09 scFv (scFv, V domains shown) VH: EVQLVQSGAEVKKPGASVKVSCKASGYTFTGYYMHWVRQAPGQGLEWMGRINPNSGGTNYAQKFQGRVTMTRDTSISTAYMELSGLRSDDTAVYFCARVTYNIGWYIDYWGQGTLVTVSS VL: QAVVTQPPSVSVAPGKTATITCGGNNIGSKGVHWYQQKPGQAPVLVIYYDTDRPSGIPERLSGSNSGNTATLTISRVEAGDEADYYCQVWDSSSDHPVFGGGTKLTVL", "EC50", 360),
    ("2020EP47-F02 scFv (scFv, V domains shown, also called EP047-F02) VH: QVQLQQWGAGLLKPSETLSLTCAVYGGSFSGYYWSWIRQPPGKGLEWIGEINHSGSTNYNPSLKSRVTISVDTSKNQFSLKLSSVTAADTAVYYCARGWYLGFDYWGQGTLVTVSS VL: QSVLTQPRSVSGSPGQSVTISCTGTSRDVGGYDYVSWYQQYPGKAPKLMISGVSERPSGVPDRFTGSRSANTASLTISGLQTDDEANYYCCSYAGSFTWVFGDGTKLTVL", "EC50", 4510),
    ("2021EP029-C04 scFv (scFv, V domains shown) VH: QLQLQQSGPGLVKPSQTLSLTCAISGDSVSSNRAAWSWIRQSPSRGLEWLGRTYYRSKWYNDYAVSVESRIIINPDTSKNQFSLQLNPVTPEDTAVYYCARGSFESTWLWGQGTLVTVSS VL: QAVVTQPHSVSESPGKTVTISCTRSGGSIANNYVHWYQQRPGSFPTALIYQDNQRRSGVPDRFSGSIDSSSNSASLTISGLKTEDEAEYYCQSFDNNNVVFGGGTQLTVL", "EC50", 1),
    ("2021EP030-F02 scFv (scFv, V domains shown) VH: QVQLQESGPGLVKPSETLSLTCTVSGGSISSSSYYWGWIRQPPGKGLEWIGSIYYSGSTYYNPSLKSRVTISVDTSKNQFSLKLSSVTAADTAVYYCARQANQVVPAAIPWAKPGGTPPNWFDPWGQGTLVTVSS VL: QLVLTQPPSVSVAPGETARITCGGNNIGSKSVHWYQQKPGQAPVLVIYYDSARPSGIPERVSGSNSGNTATLTISRVEAGDEADYYCQVWDSSSDHPRVFGTGTKLTVL", "EC50", 194),
]
